experimental-details: Quality of castor oil containing emulsions with different steroids (pH, volume distribution, span, storage stability)
Type: physicochemical
measurement-conditions: emulsion of the steroid, vehicle CO (castor oil)
// label = yes (1) if D(4:3) is not less than 0.8 µm, otherwise no (0)

Examples with answers:
[[record]]
molecule = "CC(=O)[C@H]1CC[C@H]2[C@@H]3CC[C@H]4C[C@H](O)CC[C@]4(C)[C@H]3CC[C@]12C"
discrete_label = "no (0)"

[[record]]
molecule = "C[C@]12CC[C@@H](O)C[C@H]1CC[C@@H]1[C@@H]2CC[C@]2(C)[C@@H](C(=O)CO)CC[C@@H]12 [Tetrahydrodeoxycorticosterone, 5β-pregnan-3α,21-diol-20-one]"
discrete_label = "yes (1)"

[[record]]
molecule = "C[C@]12CCC(=O)C=C1CC[C@@H]1[C@@H]2[C@@H](O)C[C@@]2(C)[C@H]1CC[C@]2(O)C(=O)CO [Hydrocortisone, reference compound]"
discrete_label = "no (0)"

[[record]]
molecule = "CC(=O)[C@H]1CC[C@H]2[C@@H]3CC=C4C[C@@H](OS(=O)(=O)O)CC[C@]4(C)[C@H]3CC[C@]12C [Pregnenolone sulphate, 5-pregnen-3β-ol-20-one-sulphate]"
discrete_label = "yes (1)"

[[record]]
molecule = "CC(=O)[C@H]1CC[C@H]2[C@@H]3CC[C@@H]4C[C@@H](O)CC[C@]4(C)[C@H]3CC[C@]12C [Epipreganolone, 5β-pregnan-3β-ol-20-one]"
discrete_label = "no (0)"


In: Textbook exercise: given the entry C[C@]12CC[C@@H](O)C[C@@H]1CC[C@@H]1[C@@H]2CC[C@]2(C)C(=O)CC[C@@H]12 , state whether its D(4:3) is greater than or equal to 0.8 µm.
Out: yes (1)

---

experimental-details: Quality of castor oil containing emulsions with different steroids (pH, volume distribution, span, storage stability)
Assay type: physicochemical
measurement-conditions: emulsion of the steroid, vehicle CO+SBO (70 : 30); Malvern Mastersizer
Procedure: In order to determinate the quality of the castor oil containing emulsions with different steroids, the following compositions were prepared: The steroids were weighed in a 50 ml glass beaker. […] The emulsions were analysed with respect to the appearance, the shaking stability, pH and volume distribution. The span was analysed with a Malvern Mastersizer. […]
Consider the following compounds; for each one, report its Span.
Give bare numbers.

Take a look at these entries with their results.
[[record]]
compound = "C[C@]12CC[C@@H](O)C[C@H]1CC[C@@H]1[C@@H]2CC[C@]2(C)[C@@H](C(=O)CO)CC[C@@H]12 [Tetrahydrodeoxycorticosterone, 5β-pregnan-3α,21-diol-20-one]"
test_readout = "Span"
reported = 1.52

[[record]]
compound = "C[C@]12C=CC(=O)C=C1CC[C@@H]1[C@@H]2[C@@H](O)C[C@@]2(C)[C@H]1CC[C@]2(O)C(=O)CO [Prednisolone, reference compound]"
test_readout = "Span"
reported = 1.26

[[record]]
compound = "CC(=O)[C@H]1CC[C@H]2[C@@H]3CC[C@H]4C[C@H](O)CC[C@]4(C)[C@H]3CC[C@]12C"
test_readout = "Span"
reported = 1.58

[[record]]
compound = "CC(=O)[C@H]1CC[C@H]2[C@@H]3CC[C@@H]4C[C@@H](O)CC[C@]4(C)[C@H]3CC[C@]12C [Epipreganolone, 5β-pregnan-3β-ol-20-one]"
test_readout = "Span"
reported = 1.71

[[record]]
compound = "C[C@]12CC[C@@H](O)C[C@@H]1CC[C@@H]1[C@@H]2CC[C@]2(C)C(=O)CC[C@@H]12"
test_readout = "Span"
reported = 1.50

[[record]]
compound = "C[C@]12CCC(=O)C=C1CC[C@@H]1[C@@H]2[C@@H](O)C[C@@]2(C)[C@H]1CC[C@]2(O)C(=O)CO [Hydrocortisone, reference compound]"
test_readout = "Span"
reported = 1.51


GET /value?item= CC(=O)[C@H]1CC[C@H]2[C@@H]3CC=C4C[C@@H](OS(=O)(=O)O)CC[C@]4(C)[C@H]3CC[C@]12C [Pregnenolone sulphate, 5-pregnen-3β-ol-20-one-sulphate] &field=Span returns 1.56
